Catalogue of binders with associated IC50 (cytotoxicity, MTT assay), TUBO cells, 6 hours
Target: HER2 on TUBO cells (mice cell line), HER2-overexpressing (UniProt P06494 23-1257)
Sequence (P06494 23-1257): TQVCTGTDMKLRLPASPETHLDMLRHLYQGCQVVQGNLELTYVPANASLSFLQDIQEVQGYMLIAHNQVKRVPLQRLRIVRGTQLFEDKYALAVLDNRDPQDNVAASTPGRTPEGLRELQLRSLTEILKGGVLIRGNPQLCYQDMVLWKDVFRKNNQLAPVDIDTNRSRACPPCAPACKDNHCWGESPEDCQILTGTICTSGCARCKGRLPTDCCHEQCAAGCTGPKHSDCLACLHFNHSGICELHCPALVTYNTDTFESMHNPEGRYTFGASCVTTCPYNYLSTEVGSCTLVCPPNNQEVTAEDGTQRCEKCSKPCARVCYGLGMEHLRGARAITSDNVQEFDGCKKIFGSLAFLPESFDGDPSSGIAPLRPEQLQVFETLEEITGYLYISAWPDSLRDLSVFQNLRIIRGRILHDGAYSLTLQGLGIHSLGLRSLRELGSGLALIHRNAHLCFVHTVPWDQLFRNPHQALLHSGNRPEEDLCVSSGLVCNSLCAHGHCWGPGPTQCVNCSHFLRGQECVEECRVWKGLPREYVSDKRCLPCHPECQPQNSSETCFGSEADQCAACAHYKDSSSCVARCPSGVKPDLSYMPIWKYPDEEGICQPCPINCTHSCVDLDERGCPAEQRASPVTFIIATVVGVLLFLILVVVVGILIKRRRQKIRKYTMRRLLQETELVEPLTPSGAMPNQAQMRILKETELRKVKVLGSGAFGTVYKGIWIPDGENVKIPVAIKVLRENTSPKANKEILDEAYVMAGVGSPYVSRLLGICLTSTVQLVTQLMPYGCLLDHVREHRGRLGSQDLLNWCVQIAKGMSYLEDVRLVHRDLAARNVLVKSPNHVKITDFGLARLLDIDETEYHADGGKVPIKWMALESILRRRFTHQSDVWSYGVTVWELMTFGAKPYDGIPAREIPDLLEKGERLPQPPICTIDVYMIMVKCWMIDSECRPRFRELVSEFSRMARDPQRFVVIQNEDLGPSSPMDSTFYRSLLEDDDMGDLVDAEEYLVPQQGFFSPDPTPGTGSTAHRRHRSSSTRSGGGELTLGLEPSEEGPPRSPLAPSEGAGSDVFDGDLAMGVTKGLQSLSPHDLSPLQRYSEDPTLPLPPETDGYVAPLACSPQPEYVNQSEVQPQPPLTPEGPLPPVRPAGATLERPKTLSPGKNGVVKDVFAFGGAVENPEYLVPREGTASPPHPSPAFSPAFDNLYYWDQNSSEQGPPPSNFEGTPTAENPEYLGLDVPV
Experiment: cell-based or functional assay
Where no end group is shown, it is not given here.
parameter: IC50 (cytotoxicity, MTT assay), TUBO cells, 6 hours (µM)

C(Maleimide‑PEG2000‑DSPE)GGGLTVSPWY (not fully specified; also: order of spacer and peptide assumed) [LTVSPWY (SEQ ID NO: 1) peptide-liposome, post inserted liposome 200 Ligand] | 2.5
C(Maleimide‑PEG2000‑DSPE)GGGLTVSPWY (not fully specified; also: order of spacer and peptide assumed) [LTVSPWY (SEQ ID NO: 1) peptide-liposome, post inserted liposome 100 Ligand] | 3.9
C(Maleimide‑PEG2000‑DSPE)GGGLTVSPWY (not fully specified; also: order of spacer and peptide assumed) [LTVSPWY (SEQ ID NO: 1) peptide-liposome, post inserted liposome 50 Ligand] | 4.6
C(Maleimide‑PEG2000‑DSPE)GGGLTVSPWY (not fully specified; also: order of spacer and peptide assumed) [LTVSPWY (SEQ ID NO: 1) peptide-liposome, post inserted liposome 25 Ligand] | 5.5
